- System: UACC-257 melanoma
- PROTOCOL SUMMARY: NCI tumour cell line growth inhibition, 48 h; in the data active means GI50 below about 0.43 µM; inactive means the rest
Outcome codes: active, inactive

{"STRUCTURE AS SMILES": "Cn1cnc([N+](=O)[O-])c1S(=O)(=O)Oc1cccc2ccccc12", "CLASS ASSIGNMENT": "inactive"}
{"STRUCTURE AS SMILES": "COc1cc2c3c(n(C)c(=O)c2cc1OC)-c1cc2c(cc1/C3=C\\CCN)OCO2", "CLASS ASSIGNMENT": "inactive"}
{"STRUCTURE AS SMILES": "CO[C@H]1/C=C(/C)CCC[C@H](C)[C@H](O)[C@@H](C)C(=O)C(C)(C)[C@@H](O)CC(=O)O[C@@H]1/C(C)=C/c1csc(C)n1", "CLASS ASSIGNMENT": "active"}
{"STRUCTURE AS SMILES": "Cc1c2c(nn1-c1ccc(S(=O)(=O)/N=C3\\SCCC(=O)N3c3ccccc3)cc1)-c1ccccc1CC2", "CLASS ASSIGNMENT": "inactive"}

====

- Test system: HCT-15 colon
- PROTOCOL SUMMARY: NCI tumour cell line growth inhibition, 48 h; in the data active = GI50 below about 0.43 µM; inactive = the rest
Outcome codes: active, inactive

{"STRUCTURE AS SMILES": "O=C(/C=C/c1ccc(Cl)cc1)c1ccc(Nc2ccnc3cc(Cl)ccc23)cc1", "SYSTEM": "HCT-15 colon", "CLASS ASSIGNMENT": "inactive"}
{"STRUCTURE AS SMILES": "CCCCCCCC(=O)SCC/C=C/[C@@H]1CC(=O)NCc2cc(ccn2)C2=N[C@@](C)(CS2)C(=O)N[C@@H](C(C)C)C(=O)O1", "SYSTEM": "HCT-15 colon", "CLASS ASSIGNMENT": "active"}
{"STRUCTURE AS SMILES": "O=C(/C=C\\c1ccc(Cl)c(Cl)c1)c1ccc(Cl)cc1Cl", "SYSTEM": "HCT-15 colon", "CLASS ASSIGNMENT": "inactive"}
{"STRUCTURE AS SMILES": "[Cl-].[La+3].[O-]/N=C(\\c1ccccc1)c1ccccn1.[O-]/N=C(\\c1ccccc1)c1ccccn1.[O-]/N=C(\\c1ccccc1)c1ccccn1", "SYSTEM": "HCT-15 colon", "CLASS ASSIGNMENT": "inactive"}
{"STRUCTURE AS SMILES": "O=C1c2cc3c(cc2-c2c1c1ccc(F)cc1c(=O)n2CCCNCCO)OCO3", "SYSTEM": "HCT-15 colon", "CLASS ASSIGNMENT": "active"}

====

- Test system: IGROV1 ovarian
- PROTOCOL SUMMARY: NCI tumour cell line growth inhibition, 48 h

{"MOLECULE": "Cc1cn(C2CC(O)C(CO)O2)c(=O)[nH]c1=O (configuration not stated)", "TGI": "> 5000 µM"}
{"MOLECULE": "O=C(CSc1ccc(Cl)cc1)Nc1ccc(-c2nc3ccccc3s2)c(Cl)c1", "TGI": "75.8 µM"}
{"MOLECULE": "O=c1[nH]c(=O)n(C2OC(CO)C(O)C2O)c2nc(-c3ccc(-c4ccccc4)cc3)cnc12 (configuration not stated)", "TGI": "> 100 µM"}
{"MOLECULE": "CCOC(=O)c1c(C)nc2c3ccccc3c(C#N)c(C)n12", "TGI": "> 100 µM"}
{"MOLECULE": "CCCSCC(P(=O)(O)O)P(=O)(O)O", "TGI": "> 100 µM"}
{"MOLECULE": "COc1ccc(/C=C(/C#N)n2nnc3cccc(F)c32)cc1", "TGI": "16.3 µM"}
{"MOLECULE": "N=Nc1c(OC(=O)Nc2cccc(Cl)c2)[nH]c2ccccc12", "TGI": "21.4 µM"}
{"MOLECULE": "CCCCCCOc1ccc(C(=O)NOC)cc1", "TGI": "> 100 µM"}
{"MOLECULE": "COC(=O)C1=C(C)NC(C)=C(C(=O)OCCCN2CCC(c3ccccc3)(c3ccccc3)CC2)C1c1cccc([N+](=O)[O-])c1 (configuration not stated)", "TGI": "3.21 µM"}
{"MOLECULE": "Cc1ccccc1S(=O)(=O)OC1NS(=O)(=O)c2ccccc21 (configuration not stated)", "TGI": "> 100 µM"}
{"MOLECULE": "O=C(O)c1ccccc1CC1Cc2ccccc2C1=O (configuration not stated)", "TGI": "> 100 µM"}
{"MOLECULE": "CCOC(=O)CC(=O)ON(C)C(C)=O", "TGI": "> 100 µM"}
{"MOLECULE": "COc1cc(NS(C)(=O)=O)ccc1Nc1cc(C)[nH]c2ccc3nccc3c12", "TGI": "> 100 µM"}
{"MOLECULE": "CCN1c2ccccc2C(C(SC)S(=O)(=O)c2ccc(C)cc2)c2c1[nH]c(=O)n(C)c2=O (configuration not stated)", "TGI": "> 100 µM"}
{"MOLECULE": "CCOC(=O)c1ccc(NCC#CCN2CCOCC2)cc1", "TGI": "> 100 µM"}
{"MOLECULE": "COc1cc(/C=C/C(=O)CC(=O)/C=C/c2ccc(OC(=O)CCCCC3CCSS3)c(OC)c2)ccc1OC(=O)CCCCC1CCSS1 (configuration not stated)", "TGI": "> 100 µM"}
{"MOLECULE": "COc1cccc2c(=O)oc(-c3ccc(C(C)(C)C)cc3)nc12", "TGI": "> 100 µM"}
{"MOLECULE": "COc1cc2c3c(n(C)c(=O)c2cc1OC)-c1cc2c(cc1/C3=C\\CCCN)OCO2", "TGI": "32.4 µM"}
{"MOLECULE": "COc1cccc(-c2nc(-c3ccc(NC(=O)C(C)C)cc3)[nH]c2-c2ccnc(Br)c2)c1", "TGI": "> 100 µM"}
{"MOLECULE": "Oc1ccc([I+]c2ccccc2)cc1O", "TGI": "> 100 µM"}
{"MOLECULE": "COc1ccc2c(c1)OCC1Cc3ccccc3OC21 (configuration not stated)", "TGI": "> 100 µM"}
{"MOLECULE": "COc1cc(NCc2ccc3oc(=O)c(-c4ccccc4)nc3c2)cc(OC)c1OC", "TGI": "> 10 µM"}

// provenance: PubChem BioAssay (NCI)
